target: Gonadotropin-releasing hormone receptor (Homo sapiens); test: Human gonadotropin-releasing hormone receptor (GnRHR) small molecule agonists, calcium flux assay in GnRHR-HEK293 cells (AID 1920063); conditions: calcium flux fluorescence, agonist mode; series mostly up to 57.6 µM; further: nearly all actives have a fitted effect of over 35% in size
The source made the active and inactive calls. The call rests on the fitted dose curve.
Outcome codes: T for active, F for inactive

COMPOUND: CCCCOC(=O)c1ccccc1N
TESTED TARGET: Gonadotropin-releasing hormone receptor (Homo sapiens)
CATEGORY LABEL: F

COMPOUND: CCOC1Oc2ccc(OS(C)(=O)=O)cc2C1(C)C (centres undefined)
TESTED TARGET: Gonadotropin-releasing hormone receptor (Homo sapiens)
CATEGORY LABEL: F

COMPOUND: CCC#N
TESTED TARGET: Gonadotropin-releasing hormone receptor (Homo sapiens)
CATEGORY LABEL: F

COMPOUND: CCC[CH2][Sn]([CH2]CCC)([CH2]CCC)[O]C(=O)c1ccccc1
TESTED TARGET: Gonadotropin-releasing hormone receptor (Homo sapiens)
CATEGORY LABEL: T

COMPOUND: C[N+]1(C)[C@@H]2CC[C@H]1CC(OC(=O)C(CO)c1ccccc1)C2 (some centres undefined)
TESTED TARGET: Gonadotropin-releasing hormone receptor (Homo sapiens)
CATEGORY LABEL: F

COMPOUND: CCC(=O)C(CCN(C)C)(c1ccccc1)c1ccccc1
TESTED TARGET: Gonadotropin-releasing hormone receptor (Homo sapiens)
CATEGORY LABEL: F

COMPOUND: CCS(=O)(=O)c1cccnc1S(=O)(=O)NC(=O)Nc1nc(OC)cc(OC)n1
TESTED TARGET: Gonadotropin-releasing hormone receptor (Homo sapiens)
CATEGORY LABEL: F

COMPOUND: O=[N+]([O-])c1c2ccccc2cc2ccccc12
TESTED TARGET: Gonadotropin-releasing hormone receptor (Homo sapiens)
CATEGORY LABEL: F

COMPOUND: CN(C)C(=O)Oc1cc(OC(=O)N(C)C)cc(C(O)CNC(C)(C)C)c1 (centres undefined)
TESTED TARGET: Gonadotropin-releasing hormone receptor (Homo sapiens)
CATEGORY LABEL: F

COMPOUND: CSSC
TESTED TARGET: Gonadotropin-releasing hormone receptor (Homo sapiens)
CATEGORY LABEL: F

COMPOUND: Cn1c(CCCC(=O)O)nc2cc(N(CCCl)CCCl)ccc21
TESTED TARGET: Gonadotropin-releasing hormone receptor (Homo sapiens)
CATEGORY LABEL: F

COMPOUND: CC(=O)CN(CC(C)=O)N=O
TESTED TARGET: Gonadotropin-releasing hormone receptor (Homo sapiens)
CATEGORY LABEL: F

COMPOUND: BrCC(Br)(Br)Br
TESTED TARGET: Gonadotropin-releasing hormone receptor (Homo sapiens)
CATEGORY LABEL: F

COMPOUND: CCC(CC)(CNC(=O)CCCO)c1cccc(OC)c1
TESTED TARGET: Gonadotropin-releasing hormone receptor (Homo sapiens)
CATEGORY LABEL: F

COMPOUND: CCCCCl
TESTED TARGET: Gonadotropin-releasing hormone receptor (Homo sapiens)
CATEGORY LABEL: F

COMPOUND: CCOP(=S)(OCC)SCSCC
TESTED TARGET: Gonadotropin-releasing hormone receptor (Homo sapiens)
CATEGORY LABEL: F

COMPOUND: O=C(NC(=O)c1c(F)cccc1F)Nc1cc(Cl)c(Oc2ncc(C(F)(F)F)cc2Cl)c(Cl)c1
TESTED TARGET: Gonadotropin-releasing hormone receptor (Homo sapiens)
CATEGORY LABEL: F

COMPOUND: Clc1cccc2ccccc12
TESTED TARGET: Gonadotropin-releasing hormone receptor (Homo sapiens)
CATEGORY LABEL: F

COMPOUND: CC(=O)[C@H]1CC[C@H]2[C@@H]3CC[C@H]4C[C@H](O)CC[C@]4(C)[C@H]3C(=O)C[C@]12C
TESTED TARGET: Gonadotropin-releasing hormone receptor (Homo sapiens)
CATEGORY LABEL: F

COMPOUND: O=C(CCl)C(Cl)Cl
TESTED TARGET: Gonadotropin-releasing hormone receptor (Homo sapiens)
CATEGORY LABEL: F

COMPOUND: C=CC(=O)OC
TESTED TARGET: Gonadotropin-releasing hormone receptor (Homo sapiens)
CATEGORY LABEL: F

COMPOUND: CC(C)(C)C(O)C(Oc1ccc(-c2ccccc2)cc1)n1cncn1 (centres undefined)
TESTED TARGET: Gonadotropin-releasing hormone receptor (Homo sapiens)
CATEGORY LABEL: F

COMPOUND: Clc1ccccc1
TESTED TARGET: Gonadotropin-releasing hormone receptor (Homo sapiens)
CATEGORY LABEL: F

COMPOUND: O=C(O)C(F)(F)C(F)(F)C(F)(F)C(F)(F)C(F)(F)C(F)(F)C(F)(F)C(F)(F)C(F)(F)F
TESTED TARGET: Gonadotropin-releasing hormone receptor (Homo sapiens)
CATEGORY LABEL: F

COMPOUND: N#CCc1ccc(Cl)cc1
TESTED TARGET: Gonadotropin-releasing hormone receptor (Homo sapiens)
CATEGORY LABEL: F

COMPOUND: CC(=O)[O][Pb]([c]1ccccc1)([c]1ccccc1)[c]1ccccc1
TESTED TARGET: Gonadotropin-releasing hormone receptor (Homo sapiens)
CATEGORY LABEL: T

COMPOUND: CNP(=O)(OC)Oc1ccc(C(C)(C)C)cc1Cl (centres undefined)
TESTED TARGET: Gonadotropin-releasing hormone receptor (Homo sapiens)
CATEGORY LABEL: F

COMPOUND: SCc1ccco1
TESTED TARGET: Gonadotropin-releasing hormone receptor (Homo sapiens)
CATEGORY LABEL: F

COMPOUND: COP(=O)(OC)O/C(C)=C/C(=O)N(C)C
TESTED TARGET: Gonadotropin-releasing hormone receptor (Homo sapiens)
CATEGORY LABEL: F

COMPOUND: Oc1c(Cl)c(Cl)cc(Cl)c1Cl
TESTED TARGET: Gonadotropin-releasing hormone receptor (Homo sapiens)
CATEGORY LABEL: F

COMPOUND: ClC(Cl)C(Cl)(Cl)Cl
TESTED TARGET: Gonadotropin-releasing hormone receptor (Homo sapiens)
CATEGORY LABEL: F

COMPOUND: O=S(=O)(NS(=O)(=O)C(F)(F)F)C(F)(F)F
TESTED TARGET: Gonadotropin-releasing hormone receptor (Homo sapiens)
CATEGORY LABEL: F

COMPOUND: CC1N=C(N)OC1c1ccccc1 (centres undefined)
TESTED TARGET: Gonadotropin-releasing hormone receptor (Homo sapiens)
CATEGORY LABEL: F

COMPOUND: O=C1NCN(c2ccccc2)C12CCN(CCCOc1ccc(F)cc1)CC2
TESTED TARGET: Gonadotropin-releasing hormone receptor (Homo sapiens)
CATEGORY LABEL: T

COMPOUND: CNC(=O)O/N=C(\C)C(C)S(C)(=O)=O (centres undefined)
TESTED TARGET: Gonadotropin-releasing hormone receptor (Homo sapiens)
CATEGORY LABEL: F

COMPOUND: CCCCCCCc1ccc(O)cc1
TESTED TARGET: Gonadotropin-releasing hormone receptor (Homo sapiens)
CATEGORY LABEL: F

COMPOUND: CN(C)[C@@H]1C(=O)C(C(N)=O)=C(O)[C@@]2(O)C(=O)C3=C(O)c4c(O)ccc(Cl)c4[C@@](C)(O)[C@H]3C[C@@H]12
TESTED TARGET: Gonadotropin-releasing hormone receptor (Homo sapiens)
CATEGORY LABEL: F

COMPOUND: CC[N+]1(CCOC(=O)C(O)(c2ccccc2)c2ccccc2)CCCCC1
TESTED TARGET: Gonadotropin-releasing hormone receptor (Homo sapiens)
CATEGORY LABEL: F

COMPOUND: NC1CCC(CC2CCC(N)CC2)CC1 (centres undefined)
TESTED TARGET: Gonadotropin-releasing hormone receptor (Homo sapiens)
CATEGORY LABEL: F

COMPOUND: Cc1ccc([N+](=O)[O-])[c]2c1[O][Hg]2
TESTED TARGET: Gonadotropin-releasing hormone receptor (Homo sapiens)
CATEGORY LABEL: T

COMPOUND: [O]=[Cd]
TESTED TARGET: Gonadotropin-releasing hormone receptor (Homo sapiens)
CATEGORY LABEL: F

COMPOUND: CCCSP(=S)(OCC)Oc1ccc(SC)cc1 (centres undefined)
TESTED TARGET: Gonadotropin-releasing hormone receptor (Homo sapiens)
CATEGORY LABEL: F

COMPOUND: Cc1ccccc1OP(=O)(Oc1ccccc1C)Oc1ccccc1C
TESTED TARGET: Gonadotropin-releasing hormone receptor (Homo sapiens)
CATEGORY LABEL: F

COMPOUND: CN(C)CCc1c[nH]c2ccc(O)cc12
TESTED TARGET: Gonadotropin-releasing hormone receptor (Homo sapiens)
CATEGORY LABEL: F

Each recorded value in this set is attributed to PubChem BioAssay (Tox21).
